Reported MIC by item:
test system: Staphylococcus aureus; assay: Antibacterial activity against Staphylococcus aureus 4220 measured after 24 hrs by two-fold serial dilution method; type: functional; conditions: Staphylococcus aureus, 4220, 24 h
REPORTED PROPERTY: MIC (µg/mL)

{"SMILES ENTRY": "O=C(N/N=C/c1ccc(/C=C/C(=O)c2ccccc2Br)cc1)c1ccncc1", "REPORTED PROPERTY": "MIC", "DISPLAY UNIT": "µg/mL", "REL": "=", "OBSERVED RESULT": 64}
{"SMILES ENTRY": "Cc1ccc(C(=O)/C=C/c2ccc(/C=N/NC(=N)N)cc2)c(C)c1", "REPORTED PROPERTY": "MIC", "DISPLAY UNIT": "µg/mL", "REL": "=", "OBSERVED RESULT": 4}
{"SMILES ENTRY": "O=C(/C=C/c1ccc(/C=N/NC(=O)c2ccncc2)cc1)c1ccc(Br)cc1", "REPORTED PROPERTY": "MIC", "DISPLAY UNIT": "µg/mL", "REL": ">", "OBSERVED RESULT": 64}
{"SMILES ENTRY": "O=C(/C=C/c1ccc(/C=N/NC(=O)c2cccc(Cl)c2)cc1)c1ccc(Cl)cc1", "REPORTED PROPERTY": "MIC", "DISPLAY UNIT": "µg/mL", "REL": "=", "OBSERVED RESULT": 32}
{"SMILES ENTRY": "O=C(N/N=C/c1ccc(/C=C/C(=O)c2ccccc2Cl)cc1)c1ccccc1", "REPORTED PROPERTY": "MIC", "DISPLAY UNIT": "µg/mL", "REL": ">", "OBSERVED RESULT": 64}
{"SMILES ENTRY": "N=C(N)N/N=C/c1ccc(/C=C/C(=O)c2ccccc2Cl)cc1", "REPORTED PROPERTY": "MIC", "DISPLAY UNIT": "µg/mL", "REL": "=", "OBSERVED RESULT": 8}
{"SMILES ENTRY": "N=C(N)N/N=C/c1ccc(/C=C/C(=O)c2ccc(Cl)cc2Cl)cc1", "REPORTED PROPERTY": "MIC", "DISPLAY UNIT": "µg/mL", "REL": "=", "OBSERVED RESULT": 2}
{"SMILES ENTRY": "O=C(/C=C/c1ccc(/C=N/NC(=O)c2ccncc2)cc1)c1cccc(Br)c1", "REPORTED PROPERTY": "MIC", "DISPLAY UNIT": "µg/mL", "REL": "=", "OBSERVED RESULT": 64}
